molecular target: HDM2 (Homo sapiens, UniProt Q00987); construct: Thioredoxin (N); made in house; host or cells: E. coli strain BL21(DE3)Rosetta; assay: HDM2 FRET assay (inhibition of binding of FITC labeled p53-pocket peptide to HDM2); details: Table 7; read-out: FRET IC50
Sequence (Q00987 17-125): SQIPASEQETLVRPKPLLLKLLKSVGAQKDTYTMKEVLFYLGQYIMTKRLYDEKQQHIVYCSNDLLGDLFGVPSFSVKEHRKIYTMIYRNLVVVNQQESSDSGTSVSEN
Okay, here is how we bin by IC50: Low: < 100 nM; Mid: ≥ 100 nM and < 300 nM; High: ≥ 300 nM

For this compound, which bin applies? Cc1cccc(-c2nc3nc(C(=O)O)nc(N4CCC[C@@H]4C4CCC4)c3n2Cc2ccc(C(F)(F)F)cc2)c1 [Example 7.8]
Mid

Class? Entry: COc1ccc(C)cc1-c1nc2nc(C(=O)O)nc(NC(C)C3CC(C)C3)c2n1Cc1ccc(C(F)(F)F)cc1 (stereo not shown) [Example 7.18]
Mid

# bin label for Cc1cccc(-c2nc3nc(C(=O)O)nc(N[C@H](CCCO)C4CCC4)c3n2Cc2ccc(Cl)cc2)c1 [Example 7.1]
Mid

Dear colleague, I would appreciate it if you could identify the bin for CCC[C@@H](Nc1nc(C(=O)O)nc2nc(-c3cccc(C)c3)n(Cc3ccc(C(F)(F)F)cc3)c12)C1CCC1 [Example 7.5] and reply at your convenience.
Mid

# bin label for Cc1cccc(-c2nc3nc(C(=O)O)nc(N[C@H](CCCN4CCN(C)CC4)C4CCC4)c3n2Cc2ccc(C(F)(F)F)cc2)c1 [Example 7.10]
Low

Form: Item = Cc1cccc(-c2nc3nc(C(=O)O)nc(N[C@H](CCCN(C)C)C4CCC4)c3n2Cc2ccc(C(F)(F)F)cc2)c1 [Example 7.11] ; Class = ?
High

Which class is correct for the following compound? Cc1cccc(-c2nc3nc(C(=O)O)nc(N[C@H](CCC(N)=O)C4CCC4)c3n2Cc2ccc(C(F)(F)F)cc2)c1 [Example 7.12]
Low

Please let me know in which category the item Cc1cccc(-c2nc3ncnc(N4CCC[C@@H]4C4CCC4)c3n2Cc2ccc(C(F)(F)F)cc2)c1 [Example 7.9] belongs.
High

Just checking, what class would you give COc1ccc(C)cc1-c1nc2nc(C(=O)O)nc(N[C@H](C)C3CC3(F)F)c2n1Cc1ccc(C(F)(F)F)cc1 (stereo partly shown) [Example 7.19] here?
High

Which class holds CC(C)c1ccnc(-c2nc3nc(C(=O)O)nc(N[C@H](c4ccccc4)C4CCC4)c3n2Cc2ccc(C(F)(F)F)cc2)c1 [Example 7.16] ?
Low

Lab note: sort Cc1cccc(-c2nc3nc(C(=O)O)nc(N[C@H](CCC(=O)NCCO)C4CCC4)c3n2Cc2ccc(C(F)(F)F)cc2)c1 [Example 7.7] into the matching IC50 band.
High

Tag the class for Cc1cccc(-c2nc3ncnc(N[C@H](CCCO)C4CCC4)c3n2Cc2ccc(C(F)(F)F)cc2)c1 [Example 7.3]
High

Class label required: Cc1cccc(-c2nc3nc(C(=O)O)nc(N[C@H](CCCO)C4CCC4)c3n2Cc2ccc(C(F)(F)F)cc2)c1 [Example 7.2]
Low

----------
target: HDM2 (Homo sapiens); construct: Thioredoxin (N); made in house; host or cells: E. coli strain BL21(DE3)Rosetta; experiment: HDM2 FRET assay (inhibition of binding of FITC labeled p53-pocket peptide to HDM2); details: Table 9; read-out: FRET IC50
pIC50: −log10 of the molar value.
Binary classification by pIC50, with 8 as an inclusive lower bound for condition met; all other cases are condition not met.

Identify whether the reported pIC50 of the following compound is 8 or greater: C[C@@H](Nc1nc(C(=O)O)nc2nc(N3CCCCC3c3ccccc3)n(Cc3ccc(C(F)(F)F)cc3)c12)C1CCC1 (stereo partly drawn)
condition met

Quick check, pIC50 >= 8? C[C@@H](Nc1nc(-c2noc(=O)[nH]2)nc2nc(N3CCCC3C3CCCCC3)n(Cc3ccc(C(F)(F)F)cc3)c12)C1CCC1 (stereo partly drawn)
condition not met

Hello, I need to know if C[C@@H](Nc1ncnc2nc(N[C@@H](CO)c3ccccc3)n(Cc3ccc(C(F)(F)F)cc3)c12)C1CCC1 has measured pIC50 not below 8. Thanks!
condition not met

----------
target: HDM2 (Homo sapiens, UniProt Q00987); construct: Thioredoxin (N); made in house; host or cells: E. coli strain BL21(DE3)Rosetta; experiment: HDM2 FRET assay (inhibition of binding of FITC labeled p53-pocket peptide to HDM2); settings: Table 9; read-out: FRET IC50
property: log10 of IC50 (log10 of the value in nM)
Please be aware that the numbers have been log10-transformed from IC50 in nM.

log10 of IC50 recorded for this compound, C[C@@H](Nc1nc(C(=O)O)nc2nc(N(C)[C@@H](C)c3ccccc3)n(Cc3ccc(C(F)(F)F)cc3)c12)C1CCC1 , is 1.33

Recorded log10 of IC50 (compound C[C@@H](Nc1nc(-c2noc(=O)[nH]2)nc2nc(N3CCCCC34CC4)n(Cc3ccc(C(F)(F)F)cc3)c12)C1CCC1 ): 0.99

Lab note: C[C@@H](Nc1nc(-c2noc(=O)[nH]2)nc2nc(N3CCCCC3c3nccn3C)n(Cc3ccc(C(F)(F)F)cc3)c12)C1CCC1 (some centres unmarked) gave log10 of IC50 of 1.06

// log10 of IC50 value for CCC(c1ccccc1)N(C)c1nc2nc(-c3noc(=O)[nH]3)nc(N[C@H](C)C3CCC3)c2n1Cc1ccc(C(F)(F)F)c(F)c1 (some centres unmarked) : 1.26

Measured log10 of IC50, CC1CCCCN1c1nc2nc(-c3noc(=O)[nH]3)nc(N[C@H](C)C3CCC3)c2n1Cc1ccc(C(F)(F)F)cc1 (some centres unmarked) : 1.01

// log10 of IC50 value for C[C@@H](Nc1nc(C(=O)O)nc2nc(NC(C)(C)c3ccccc3)n(Cc3ccc(C(F)(F)F)cc3)c12)C1CCC1 : 0.27

The value of log10 of IC50 measured for the compound CC(Nc1nc2nc(C(=O)O)nc(N[C@H](C)C3CCC3)c2n1Cc1ccc(C(F)(F)F)cc1)c1ccccn1 (some centres unmarked) turned out to be -0.28

Per the record, C[C@@H](Nc1nc(C(=O)O)nc2nc(N3CCC3c3ccccc3)n(Cc3ccc(C(F)(F)F)cc3)c12)C1CCC1 (some centres unmarked) has log10 of IC50 of 1.38

Lookup result for CC(c1ccccn1)N(C)c1nc2nc(-c3noc(=O)[nH]3)nc(N[C@H](C)C3CCC3)c2n1Cc1ccc(C(F)(F)F)c(F)c1 (some centres unmarked) ; measured log10 of IC50: 0.67

Value of measured log10 of IC50 for the entry C[C@@H](Nc1nc(-c2noc(=O)[nH]2)nc2nc(N3CCCCC3c3cccc(F)c3)n(Cc3ccc(C(F)(F)F)cc3)c12)C1CCC1 (some centres unmarked) : 1.41

Reported log10 of IC50 for C[C@@H](Nc1nc(C(=O)O)nc2nc(N3CCCCC3Cc3cccc(C(F)(F)F)c3)n(Cc3ccc(C(F)(F)F)cc3)c12)C1CCC1 (some centres unmarked) was 2.04

log10 of IC50 reading for C[C@@H](Nc1nc(C(=O)O)nc2nc(N3CCOC[C@H]3c3ccccc3)n(Cc3ccc(C(F)(F)F)cc3)c12)C1CCC1 : 0.25

compound C[C@@H](Nc1nc(C(=O)O)nc2nc(N3CCCCC3c3ccccn3)n(Cc3ccc(C(F)(F)F)cc3)c12)C1CCC1 (some centres unmarked) , log10 of IC50 observed: 1.42

Noted for C[C@@H](Nc1nc(C(=O)O)nc2nc(N3CCCC[C@@H]3c3ccccc3)n(Cc3ccc(C(F)(F)F)cc3)c12)C1CCC1 : its log10 of IC50 reads 1.24

Item: C[C@@H](Nc1nc(C(=O)O)nc2nc(N3CCCC3c3cccc(F)c3)n(Cc3ccc(C(F)(F)F)cc3)c12)C1CCC1 (some centres unmarked) | log10 of IC50: 1.01

Data point: C[C@@H](Nc1nc(-c2noc(=O)[nH]2)nc2nc(N(C)CC3(C)CCN(C)C3)n(Cc3ccc(C(F)(F)F)cc3)c12)C1CCC1 (some centres unmarked) ; log10 of IC50 = 1.85

Noted for C[C@@H](Nc1nc(C(=O)O)nc2nc(N3CCOC(c4ccccc4)C3)n(Cc3ccc(C(F)(F)F)cc3)c12)C1CCC1 (some centres unmarked) : its log10 of IC50 reads 1.09

Value of measured log10 of IC50 for the entry C[C@@H](Nc1nc(C(=O)O)nc2nc(N3CCOC[C@@H]3C)n(Cc3ccc(C(F)(F)F)cc3)c12)C1CCC1 : 1.18

Looking up C[C@@H](Nc1nc(C(=O)O)nc2nc(N3CCCCC3c3ccc(F)cc3)n(Cc3ccc(C(F)(F)F)cc3)c12)C1CCC1 (some centres unmarked) , I found its log10 of IC50 recorded as 1.03

Entry under test: C[C@@H](Nc1nc(C(=O)O)nc2nc(N3CCCC(C)(C)C3)n(Cc3ccc(C(F)(F)F)cc3)c12)C1CCC1 . Its log10 of IC50 was 0.88

log10 of IC50 recorded for this compound, CC[C@H](Nc1nc2nc(C(=O)O)nc(N[C@H](C)C3CCC3)c2n1Cc1ccc(C(F)(F)F)cc1)c1ccccc1 , is -0.06

The recorded log10 of IC50 for entry C[C@@H](Nc1nc(-c2noc(=O)[nH]2)nc2nc(N3CCCCC3c3ccc(F)cc3)n(Cc3ccc(C(F)(F)F)cc3)c12)C1CCC1 (some centres unmarked) equals 0.98

The recorded log10 of IC50 for C[C@@H](Nc1nc(C(=O)O)nc2nc(NCc3ccccc3)n(Cc3ccc(C(F)(F)F)cc3)c12)C1CCC1 is 0.49

Memo: C[C@@H](Nc1nc(C(=O)O)nc2nc(NC(=O)c3ccccc3)n(Cc3ccc(C(F)(F)F)cc3)c12)C1CCC1 , reported log10 of IC50: 2.82

Item: C[C@@H](Nc1nc(C(=O)O)nc2nc(NC(=O)C3CCCCC3)n(Cc3ccc(C(F)(F)F)cc3)c12)C1CCC1 | log10 of IC50: 2.54

The recorded log10 of IC50 for CC(Nc1nc2nc(C(=O)O)nc(N[C@H](C)C3CCC3)c2n1Cc1ccc(C(F)(F)F)cc1)c1cccnc1 (some centres unmarked) is 0.48
